- experiment_notes: yeast display, Sf9 membrane polyspecificity reagent, FACS + sequencing; frameworks hold sequencing errors
measured_parameter: polyreactivity (PSR sort gate)

// below: answered sequences
QVQLVESGGGLVQAGGSLRLSCAASGRTFSLYAMGWYRQAPGKERELVARIRSSTRTTYADSVKGRFTISRDNAKNTVYLQMNSLKPEDTAVYYCAADSGYRYYTKSVGYDYWGQGTQVTVSS ... high polyreactivity
QVKLVESAGGLVQAGGSLRLSCPASGIIFGLYTMGWYRQAPGKERELVAAISDSGGRTYYADSVKGRFTISRDNVKNTVYFQMNSRKPADTAVYYCATRWPNYGGYYYWGLGTQVTVSS ... high polyreactivity
QVQLVESGGRLVQAGGSLRLSCAASGGIIRGYAMGWYRQAPGKEWELVATIRSSGRTNYADSVKGRFTISRDNEKNTVYFQMNSLKQEDTAVYYCAAVVRQYGFDYWGQGTQVTVSS ... low polyreactivity
QVQLVESGGGLVQAGGSLRLSCAATGFTFSRNTMGWYRQAPGKERELGARITKRGGTTYYADSVKGRFTISRDNAKNTVYLQMNCLKPEDSAVYYCAAATQNPGSDYWGQGTQVTVSS ... high polyreactivity
QVQLVESGGGLVQAGGSLRLSCAASGSIFQRYTMGWYRQAPGKERELVAAITSRSGRTYYADSVKGRFTISRDNAKNTVYLQMNSLKPEDTAVYYCATVPYDQTRGYKYDYWGQGTQVTVSS ... high polyreactivity

Go through the list and state polyreactivity (PSR sort gate) for each entry.
1. QVQLVESGGGLVQAGGSLRLSCAASGSTFDIYAMGWYRQAPGKESELVAAISGSSTRTYYADSVKGRFTISRDNAKYTVYLQMNSLKPEDTPGYYCVGRFYERDYWGQGTQVTVSS
2. QVQLVESGGGLVQAGGILRLSCAASGFIFYHYAMGWYRQAPGKERELVASITSGGRTYYADSVKGRFTISRDNAKNTVSLQMNRLKPEDTAVYYCAAAYYYYSSPRFTTGMDYWGQGTQVTVSS
3. QVQHVESVGGLLQAGCSLRLSCAPSGRIFGENAIGWYRQAPGKEREFLAVISISDASTYYADSVKGRFTISRDNAKNTGYLQMNSLKPDDTAVYYCAADLTDFLYVASDYWGQGTQVTVSS
4. QVQLVESGGGLVQAGGSLRISCASSGRTFWGNAKGRYRQAPGKERELVAGITKSGGTTYADSVKGRFTISRDNAKKTVYLQMNSLKPEDTAVYYCNAVRWQKGDYWGQGTQVTVSS
5. QVQLVESGGGLVQAGGSLRLSCAASGFIFGSNAMGWYRQAPGKERELVAAISSRGGRTYYADSVKGRFTISRDNAKNTVYLQMNSLKPEDTAVYYCATVRYRALRYDYWGQGTQVTVSS
6. QVQLVESGGRLVQAGGSLRLSCAAAAITFYLYAMGRYRQAPGKERELVAAISSSGGSTYYADSVKGRFTISRDNAKNTVYLQINSLKPEDTAVYYCNARRRTVPYRYDYWGQGTQVTVSS

Solution:
1: high polyreactivity; 2: high polyreactivity; 3: low polyreactivity; 4: high polyreactivity; 5: high polyreactivity; 6: high polyreactivity

---

- experiment_notes: yeast display, Sf9 membrane polyspecificity reagent, FACS + sequencing; frameworks hold sequencing errors
measured_parameter: polyreactivity (PSR sort gate)

QVQLVESGGRLVQAGGSLRLTCAATGRTFVRNPMGSYRQAPGKERELVATIRSGGSTNYADSVKGRFTISRDNAKNTVYLQMNSLKPEDTAVYYCATQGSRARYDYYYWGQGTQVTVSS ... high polyreactivity
QVHLVESGGGLLLAGGSLRLTCAASGSTFYSYDKGWYRQAPGKERELVAAISWNGGSTYYEDSVKGRFTISRDNAKNTVYLPMNSLKPEDTAVYYCAALRYVHGYDYWGQGTQVSVSS ... high polyreactivity
QVQLVESGGGLVQAGGSLRLSCAASGSTFRQNALGWYRQAPGKERELVAAITYRVASTYYADSVKGRFTISRDNAKNTVYLQMNSLKPEDTAVYYCAAYKRRSNGRYWTYDYWGQGTQVTVSS ... high polyreactivity
QVQLVESGGGLVQAGGSLRLSCAASGRIFLYAMGWYRQAPGKERELVAAINRGGSTYYADSVKGRFTISRDNAKNTVYLEMNSLKPEDTAVYYCAAKRLTCRQHDYWGQGTQVTVSS ... high polyreactivity
QDQLVQSGGGLVQAGGSLRLSCAASAITFVIYSMGWYRQAPGKERELVAAIDGSDGSTYYADSVKGRFTISRDTAKNTVYLQMNSLKPEDTAVYYCNADTGGYYVTGSYLYNEYDYWGQGTQVTVSS ... low polyreactivity

Go through the list and state polyreactivity (PSR sort gate) for each entry.
1. QVQLVESGGGLVQAGGSLRLSCAASGLTFVKNAMGWYRQAPGKERELVATISSGGSTNYADSVKGRFTISRDNAKNTVYLQMNSLKPEDTAVYYCNKDYTGVLLWIWWDRYDYWGQATQVTVSS
2. QVQLVESGGGLVQAGGSLRLSCAASGRIFTTYAMGWYRQAPGKERELVAAISRSGGSTYYADSVKGRFTISRDNAKNTVYLQMNSLKPEDTAVYYCAAVPTSNSFLSSFYYWGQGTQVTVSS

Solution:
high polyreactivity
high polyreactivity

Go through the list and state polyreactivity (PSR sort gate) for each entry.
1. QVQLVESGGGLVQAGGSLRLSCAASGFTFDFYAMGWYRQAPGKERELVAAISRRGGRTSYADSVKGRFTISRDNAKNTVYLQMNSLKPEDTAVYYCAAASLGGDGLVAYYYWGQGTQVTVSS
2. QVQLVESGGCLVQAGGSLRLSCAASGFTFGPYDMGWYRQAPGKERELVAVIIGGDSTNYADSVKGRFTISRDNAKNTVYLQLNSLKPEVTAVYYCAADYIDRVGWMDYWGQGTQVTVSS
3. QDQLVESGGGLVQAGGSLRLSCAASGRTISGYVMGWYIQAPGKERELVATINGSGASTYYADSVKGRFTISRDNAKNTVYLQMNSLKPEDTAVYYCAAKRYRPKYEYYYWGQGTQVTVSS
4. QVQLVESGGGLVQAGGSLRLSCAASGFTFYWYAMGWYRQAPGKERQLVAAISKTGGSTYYADSVKGRFTISRDNAQKTVYLQMTSLKPEDTAVYYCNADKVATWRTHHDYWGQGTQVTVSS

Solution:
1. high polyreactivity
2. low polyreactivity
3. high polyreactivity
4. low polyreactivity

---

- experiment_notes: yeast display, Sf9 membrane polyspecificity reagent, FACS + sequencing; frameworks hold sequencing errors
measured_parameter: polyreactivity (PSR sort gate)

QVQLVESGGGLVQAGGSLRLSSAASGSIFPLYAMGWYRQAPGKERELVATINRRTGSTYADSVKGRFTISRDNAKNTVYLQMKSLKPEYTAVYYCNAADNYVLFYKTRIYNYWGQGTQVTVSS ... high polyreactivity
QVQLVESGGGLVHPGGRLRLSCAASGRIYKYYVMGWYRQAPGKEREFVAAISGRGGRTYYADSVKGRFTISRDNAKNTVYLQKNSLKPEDTAVYYCATERQDRGPLGYNYWGQGTQVTVSS ... high polyreactivity
QVQLVESGGGLVQAGGSLRLSCAASGRIFRFYAMGWYRQAPGKERELVAAISSSAGGTYADSVKGRFTISRDYAKNTVYLQMNSRKPEDTAVYYCAARAYALYDWGQGTQVTVSS ... high polyreactivity
QVQLVESGGGLVHAGGRLRLSCDASGSLFFWNTMGWYRQAPGKQRQLVAAITVSGGRTYYADSVKGRFTISRDNAKNSFYLQMYSLKPEDTAVYYCAADPYRLYGYASYTYWGQGTQVTVSS ... high polyreactivity
QVQLVETGGGLVQAGGSLRLSCAASGITLPKYAMGWYRQAPGKERELVAAISRSSGRTYYADSVKGRFTISRDNAKNTVYLQMNSLKPEDTAVYYCAASHGGYITRYNYWGQGTQVTVSS ... high polyreactivity

Go through the list and state polyreactivity (PSR sort gate) for each entry.
1. QVQLVESGGGLVQAGGSLRLSCAASGGTFYKYAMGWYRQAPGKERELVAAISRSGGSTYYADSVKGRFTISRDNAKNTVYLQMNSLKPEDTAVYYCNAYGSYWDFDYWGQGTQVTVSS
2. QVQLVETGVGLVQAGGSLRLSCAASGRIFLVYAMGWYRQAPGKERELVAAISWRGGRTYYADSVKGRFTISRDNAKNTVYLQMNSLIPEDTAVYYCAAASKYSQFEYDYWGQGTQVTVSS
3. QVQLVESGGGLVQAGGSLRLSCAASGGIFYHNAMGWYRQAPGKERELVAAISGRGGRTYYADSVKGRFTISRDNAKNTVYLQMNSLKPEDTAVYYCDADQYKDFDYWGQGTQVTVSS
4. QVQLEESGGGLVQAGGSLRLSCAASGFTFRLYAMGWYRHAPGKERELFARISSGGSTHYADSVKGRFTISRDNAKNTVFLQMNSLKPEDTAVYYCAAGWGYWRSYGSWGQGTQVTFSS

Solution:
1. high polyreactivity
2. high polyreactivity
3. low polyreactivity
4. high polyreactivity

Go through the list and state polyreactivity (PSR sort gate) for each entry.
1. QVQLVDSGGGLVQAGGTLRLSCAASGSTLYFYAMGWYRLAPGKERELVAAITYIGGRTSYADSVKGRFTISRDNAKNTVYLQMNSLKPEDTAVYYCAAAPYGYRRYEYWGQGTQVTVSS
2. QVELVESGGGLVQAGGSLRLICAASGFTYTWNAMGWYRQAPGKERELVAGITRGGSTNYADSVKGRFTISRDNAKNTVYLQINSLKPEDTAVYYCNVSFYFHHAGYDFWGQGTQVTVSS

Solution:
1. high polyreactivity
2. low polyreactivity
